B1: BTBD10 (parent)
chain: DRKLHSRPRKLYKHSSTSSRIAKG

variants of: B1; experiment: protein stability index of a GFP-peptide fusion (GPS, HEK-293T) (PSI 1-6); higher = more stable; details: c terminus: a fixed tail appended;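 note: lentivirally expressed fusions sorted by FACS into six bins by GFP to DsRed ratio, PSI derived from sequencing read proportions per bin multiplied by bin number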

mutation_key | protein stability index
R2G | 3.95
L11H | 3.93
G24R | 4
